Provide the recorded melting point for the entries that follow.

Specify reported melting point for the compound shown: CN(Cc1cc2nc(-c3ccc(N)c(N)c3)nc(N3CCOCC3)c2s1)c1ncc(C(=O)NO)cn1 222 to 225 °C

Specify reported melting point for the compound shown: CN(Cc1cc2nc(-c3ccc4[nH]c(C(F)(F)F)nc4c3)nc(N3CCOCC3)c2s1)c1ncc(C(=O)NO)cn1 > 300 °C

Specify reported melting point for the compound shown: CN(Cc1cc2nc(-c3ccc(N)cc3Cl)nc(N3CCOCC3)c2s1)c1ncc(C(=O)NO)cn1 179 to 183 °C

Specify reported melting point for the compound shown: CC(=O)Nc1ccc(-c2nc(N3CCOCC3)c3sc(CN(C)c4ncc(C(=O)NO)cn4)cc3n2)cc1 228 to 230 °C

Specify reported melting point for the compound shown: Cc1nc(N)ncc1-c1nc(N2CCOCC2)c2sc(CN(C)c3ncc(C(=O)NO)cn3)cc2n1 195 to 198 °C

Specify reported melting point for the compound shown: CC(C)c1ccc(-c2nc(N3CCOCC3)c3sc(CN(C)c4ncc(C(=O)NO)cn4)cc3n2)cc1 155 °C (dec.)

Specify reported melting point for the compound shown: CC(=O)NCc1ccc(-c2nc(N3CCOCC3)c3sc(CN(C)c4ncc(C(=O)NO)cn4)cc3n2)cc1 178 to 180 °C

###

Provide the recorded IC50 for the entries that follow.
Biological target: PI3Kα (p110α/p85α) (Homo sapiens, UniProt P42336)
Construct: GST (N)
Sequence (P42336 whole entry): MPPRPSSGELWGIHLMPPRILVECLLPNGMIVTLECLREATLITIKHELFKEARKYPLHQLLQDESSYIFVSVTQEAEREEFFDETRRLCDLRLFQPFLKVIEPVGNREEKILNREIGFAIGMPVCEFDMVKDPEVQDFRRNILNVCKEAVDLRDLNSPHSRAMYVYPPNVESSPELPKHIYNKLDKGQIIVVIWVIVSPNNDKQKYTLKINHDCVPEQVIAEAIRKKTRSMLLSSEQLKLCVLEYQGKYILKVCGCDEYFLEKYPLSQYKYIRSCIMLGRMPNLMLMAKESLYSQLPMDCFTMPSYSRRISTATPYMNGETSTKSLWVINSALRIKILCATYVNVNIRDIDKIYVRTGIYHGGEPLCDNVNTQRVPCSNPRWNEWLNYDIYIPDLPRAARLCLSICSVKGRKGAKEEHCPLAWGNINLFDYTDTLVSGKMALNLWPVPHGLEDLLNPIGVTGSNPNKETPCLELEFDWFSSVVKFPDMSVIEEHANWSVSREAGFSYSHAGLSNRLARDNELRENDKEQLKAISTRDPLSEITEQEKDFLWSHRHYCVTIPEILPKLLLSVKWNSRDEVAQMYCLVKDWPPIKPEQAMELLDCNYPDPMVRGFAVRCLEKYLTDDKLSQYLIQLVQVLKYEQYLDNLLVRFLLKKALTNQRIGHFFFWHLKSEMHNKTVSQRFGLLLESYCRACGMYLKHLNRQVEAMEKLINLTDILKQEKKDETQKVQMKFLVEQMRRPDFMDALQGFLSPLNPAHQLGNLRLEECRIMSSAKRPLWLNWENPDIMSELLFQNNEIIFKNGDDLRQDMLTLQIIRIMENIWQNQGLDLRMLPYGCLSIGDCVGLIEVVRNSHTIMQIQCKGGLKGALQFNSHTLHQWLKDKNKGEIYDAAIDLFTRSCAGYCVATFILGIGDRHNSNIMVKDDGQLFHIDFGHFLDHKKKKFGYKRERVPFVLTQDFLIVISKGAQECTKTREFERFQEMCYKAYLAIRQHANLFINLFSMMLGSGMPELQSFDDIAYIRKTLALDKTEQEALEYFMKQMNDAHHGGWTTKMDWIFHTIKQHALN
Sequence (P27986 whole entry partner): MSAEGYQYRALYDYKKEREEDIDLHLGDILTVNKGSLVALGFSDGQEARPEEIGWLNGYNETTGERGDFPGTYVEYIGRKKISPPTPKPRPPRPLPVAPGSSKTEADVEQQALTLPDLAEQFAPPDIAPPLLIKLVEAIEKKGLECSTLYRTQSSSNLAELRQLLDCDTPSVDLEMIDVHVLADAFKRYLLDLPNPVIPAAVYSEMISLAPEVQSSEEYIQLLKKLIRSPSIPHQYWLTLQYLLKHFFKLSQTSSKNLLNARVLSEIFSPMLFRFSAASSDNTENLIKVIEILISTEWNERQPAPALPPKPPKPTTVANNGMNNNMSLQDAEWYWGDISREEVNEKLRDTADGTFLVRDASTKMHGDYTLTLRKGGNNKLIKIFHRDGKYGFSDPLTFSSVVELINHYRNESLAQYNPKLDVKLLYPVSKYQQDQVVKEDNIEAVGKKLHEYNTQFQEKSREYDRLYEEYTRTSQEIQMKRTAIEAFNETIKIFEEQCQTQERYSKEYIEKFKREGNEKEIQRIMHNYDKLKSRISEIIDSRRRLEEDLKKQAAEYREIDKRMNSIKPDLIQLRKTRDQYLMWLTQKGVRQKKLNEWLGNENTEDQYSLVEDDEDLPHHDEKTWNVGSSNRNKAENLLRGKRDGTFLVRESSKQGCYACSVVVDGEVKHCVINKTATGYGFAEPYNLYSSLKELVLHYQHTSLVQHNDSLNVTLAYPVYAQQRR
Experiment: PI3Kα ADP-Glo assay
Settings: 20 μM PIP2, 10 μM ATP, 30 minutes

Specify reported IC50 for the molecule shown: O=C(CCCCCCNc1cc2nc(-c3cccc4[nH]ncc34)nc(N3CCOCC3)c2s1)NO [Compound 20] 100 to 1000 nM

Specify reported IC50 for the molecule shown: CN(Cc1cc2nc(-c3cnc(N)nc3)nc(N3CCOCC3)c2s1)c1ncc(C(=O)NO)cn1 [Compound 115] < 100 nM

Specify reported IC50 for the molecule shown: CN(Cc1cc2nc(-c3ccc(CN)cc3)nc(N3CCOCC3)c2s1)c1ncc(C(=O)NO)cn1 [Compound 135] 100 to 1000 nM

Specify reported IC50 for the molecule shown: CN(Cc1cc2nc(-c3ccc4c(c3)CC(=O)N4)nc(N3CCOCC3)c2s1)c1ncc(C(=O)NO)cn1 [Compound 194] > 10000 nM

Specify reported IC50 for the molecule shown: Cc1nc(N)ncc1-c1nc(N2CCOCC2)c2sc(CN(C)c3ncc(C(=O)NO)cn3)cc2n1 [Compound 125] < 100 nM

Specify reported IC50 for the molecule shown: CC(O)c1cccc(-c2nc(N3CCOCC3)c3sc(CN(C)c4ncc(C(=O)NO)cn4)cc3n2)c1 (stereo not drawn) [Compound 294] < 100 nM

Specify reported IC50 for the molecule shown: CC(=O)Nc1cccc(-c2nc(N3CCOCC3)c3sc(CN(C)c4ncc(C(=O)NO)cn4)cc3n2)c1 [Compound 107] 1000 to 10000 nM

Specify reported IC50 for the molecule shown: CCCc1nc2cc(/C=C/C(=O)NO)ccc2n1CCNCc1cc2nc(-c3ccc(NC)nc3)nc(N3CCOCC3)c2s1 [Compound 323] < 100 nM

Specify reported IC50 for the molecule shown: CN(Cc1cc2nc(-c3cccc4c3CNC4=O)nc(N3CCOCC3)c2s1)c1ncc(C(=O)NO)cn1 [Compound 181] 1000 to 10000 nM

Specify reported IC50 for the molecule shown: CN(Cc1cc2nc(-c3ccc(O)cc3)nc(N3CCOCC3)c2s1)c1ncc(C(=O)NO)cn1 [Compound 133] 100 to 1000 nM

Specify reported IC50 for the molecule shown: CC(=O)c1cc(-c2nc(N3CCOCC3)c3sc(CN(C)c4ncc(C(=O)NO)cn4)cc3n2)ccc1N [Compound 281] 100 to 1000 nM

Specify reported IC50 for the molecule shown: CN(Cc1cc2nc(-c3cccc(CCO)c3)nc(N3CCOCC3)c2s1)c1ncc(C(=O)NO)cn1 [Compound 306] 100 to 1000 nM

Specify reported IC50 for the molecule shown: Cc1ncc(-c2nc(N3CCOCC3)c3sc(NCCCCC(=O)NO)cc3n2)cn1 [Compound 229] < 100 nM

Specify reported IC50 for the molecule shown: CN(Cc1cc2nc(-c3cccc4[nH]ncc34)nc(N(CCO)CCO)c2s1)c1ncc(C(=O)NO)cn1 [Compound 162] 1000 to 10000 nM

Specify reported IC50 for the molecule shown: O=C(NO)c1ccc2c(ccn2Cc2cc3nc(-c4cccc5[nH]ncc45)nc(N4CCOCC4)c3s2)c1 [Compound 105] > 10000 nM

Specify reported IC50 for the molecule shown: NCCN(Cc1cc2nc(-c3cccc4[nH]ncc34)nc(N3CCOCC3)c2s1)c1ncc(C(=O)NO)cn1 [Compound 94] < 100 nM

Specify reported IC50 for the molecule shown: CN1CCN(c2nc(-c3cccc4[nH]ncc34)nc3cc(CN(C)c4ncc(C(=O)NO)cn4)sc23)CC1 [Compound 61] > 10000 nM

Specify reported IC50 for the molecule shown: CS(=O)(=O)N1CCN(Cc2cc3nc(-c4cccc5nn(CCCCC(=O)NO)cc45)nc(N4CCOCC4)c3s2)CC1 [Compound 7] 100 to 1000 nM

Specify reported IC50 for the molecule shown: CN(C)c1nc(-c2cccc3[nH]ncc23)nc2cc(CN(C)c3ncc(C(=O)NO)cn3)sc12 [Compound 159] 1000 to 10000 nM

Specify reported IC50 for the molecule shown: CN(C)c1ccc(-c2nc(N3CCOCC3)c3sc(CN(C)c4ncc(C(=O)NO)cn4)cc3n2)cc1 [Compound 152] > 10000 nM

Specify reported IC50 for the molecule shown: CNC(=O)c1cccc(-c2nc(N3CCOCC3)c3sc(CN(C)c4ncc(C(=O)NO)cn4)cc3n2)c1 [Compound 144] 1000 to 10000 nM

Specify reported IC50 for the molecule shown: CN(Cc1cc2nc(-c3ccc(C(N)=O)cc3)nc(N3CCOCC3)c2s1)c1ncc(C(=O)NO)cn1 [Compound 143] 100 to 1000 nM

Specify reported IC50 for the molecule shown: O=C(NO)c1ccc(NCc2cc3nc(-c4cccc5[nH]ncc45)nc(N4CCOCC4)c3s2)cc1 [Compound 78] 100 to 1000 nM

Specify reported IC50 for the molecule shown: CS(=O)(=O)N1CCN(Cc2cc3nc(-c4cccc5[nH]ncc45)nc(N4CCN(CCCCCCC(=O)NO)CC4)c3s2)CC1 [Compound 32] > 10000 nM

Specify reported IC50 for the molecule shown: CN(Cc1cc2nc(-c3ccc(OCCO)nc3)nc(N3CCOCC3)c2s1)c1ncc(C(=O)NO)cn1 [Compound 256] < 100 nM

Specify reported IC50 for the molecule shown: O=C(NO)c1cnc(NCc2cc3nc(-c4cccc5[nH]ncc45)nc(N4CCOCC4)c3s2)nc1 [Compound 53] < 100 nM

Specify reported IC50 for the molecule shown: COc1ccc(-c2nc(N3CCOCC3)c3sc(NCCCCCC(=O)NO)cc3n2)cn1 [Compound 233] < 100 nM

Specify reported IC50 for the molecule shown: Nc1ncc(-c2nc(N3CCOCC3)c3sc(NCCCC(=O)NO)cc3n2)cn1 [Compound 225] < 100 nM

Specify reported IC50 for the molecule shown: CNc1ccc(-c2nc(N3CCOCC3)c3sc(S(=O)(=O)NCC4CCN(c5ncc(C(=O)NO)cn5)CC4)cc3n2)cn1 [Compound 310] < 100 nM

Specify reported IC50 for the molecule shown: CCCc1nc2cc(/C=C/C(=O)NO)ccc2n1CCNCc1cc2nc(-c3ccc(N)cc3)nc(N3CCOCC3)c2s1 [Compound 325] 1000 to 10000 nM

###

Provide the recorded melting point for the entries that follow.

Specify reported melting point for the compound shown: CN(Cc1cc2nc(-c3ccc(O)cc3)nc(N3CCOCC3)c2s1)c1ncc(C(=O)NO)cn1 [Compound 133] 185 to 195 °C

Specify reported melting point for the compound shown: O=C(CCCCCN1CCN(Cc2cc3nc(-c4cccc5[nH]ncc45)nc(N4CCOCC4)c3s2)CC1)NO [Compound 12] 123 to 124 °C

Specify reported melting point for the compound shown: CN(Cc1cc2nc(-c3ccc(F)cc3)nc(N3CCOCC3)c2s1)c1ncc(C(=O)NO)cn1 [Compound 200] 168 to 170 °C

Specify reported melting point for the compound shown: Nc1ncc(-c2nc(N3CCOCC3)c3sc(NCCCCC(=O)NO)cc3n2)cn1 [Compound 226] 175 to 180 °C

Specify reported melting point for the compound shown: CN(Cc1cc2nc(-c3ccc(N)c(O)c3)nc(N3CCOCC3)c2s1)c1ncc(C(=O)NO)cn1 [Compound 279] 214 to 218 °C

Specify reported melting point for the compound shown: COc1ccc(-c2nc(N3CCOCC3)c3sc(CN(C)c4ncc(C(=O)NO)cn4)cc3n2)cc1 [Compound 131] 247 °C (dec.)

Specify reported melting point for the compound shown: CS(=O)(=O)N1CCN(Cc2cc3nc(-c4ccc(OCCCCCC(=O)NO)cc4)nc(N4CCOCC4)c3s2)CC1 [Compound 320] 140 to 142 °C

Reference source: patent US20130102595A1
